studySystem: TLR7 (Homo sapiens)
Construct: human HEK-Blue cells co-expressing a TLR7 or TLR8 gene
protocolDetails: In vitro human TLR7 binding reporter assay (HEK-Blue, NF-kB/AP1-inducible SEAP)
Assay type: cell-based
conditions: activity range class, read-out: TLR7 Agonist EC50
Listed here: items and their measured EC50.

| molecule | EC50 |
| --- | --- |
| COC(=O)NCc1nc2c(N)nc3cc(-c4ccn[nH]4)ccc3c2s1 | 20 to 100 µM |
| Nc1nc2cc(-c3cc[nH]n3)ccc2c2nn(C[C@@H](O)CO)cc12 | > 100 µM |
| Nc1nc2cc(-n3cccn3)ccc2c2c1cnn2CCO | > 100 µM |
| Cc1nc(C(=O)NCCn2cc3c(n2)c(N)nc2cc(-c4cc[nH]n4)ccc23)c(C(F)(F)F)o1 | 20 to 100 µM |
| Cc1cc(Cn2cc3c(N)nc4cc(-c5cc[nH]n5)ccc4c3n2)no1 | > 100 µM |
| Nc1nc2cc(-n3cccn3)ccc2c2cn(CC3CCCO3)nc12 (centres unmarked) | 20 to 100 µM |
| Nc1nc2cc(-c3cc[nH]n3)ccc2c2cn(CCNC(=O)c3ccc(F)c(Cl)n3)nc12 | > 100 µM |
| Nc1nc2cc(-c3cc[nH]n3)ccc2c2nn(C3CCCC3O)cc12 (single isomer, unassigned) [Example 340] | > 100 µM |

----------
Test system: THP-1 cells
protocolDetails: Measurement of IL-1β production, hTRF protocol (second alternative procedure), THP-1 cells
Assay type: cell-based, human
conditions: Homo sapiens, THP-1, IL-1β production, human; read-out: NLRP3 hILIB EC50
reportedMetric: log10(EC50) (log10 of the value in nM)

| compound | studySystem | log10(EC50) |
| --- | --- | --- |
| Nc1nc2cc(-c3cc[nH]n3)ccc2c2nn(CCC(F)(F)F)cc12 [Example 348] | THP-1 cells | 2.79 |
| Nc1nc2cc(-n3cccn3)ccc2c2nn(CCO)cc12 [Example 249] | THP-1 cells | 2.81 |
| CC(=O)NC(C)Cn1cc2c(N)nc3cc(-c4ccn[nH]4)ccc3c2n1 (centres unmarked) [Example 254] | THP-1 cells | 4.31 |
| CC(C)(C)OC(=O)NCCn1cc2c(n1)c(N)nc1cc(-c3cccs3)ccc12 [Example 127] | THP-1 cells | 3.02 |
| COC1CN(CCn2cc3c(N)nc4cc(-c5ccn[nH]5)ccc4c3n2)C1 [Example 268] | THP-1 cells | 3.65 |

----------
studySystem: TLR7 (Homo sapiens, UniProt Q9NYK1)
Construct: human HEK-Blue cells co-expressing a TLR7 or TLR8 gene
Sequence (Q9NYK1 27-1049): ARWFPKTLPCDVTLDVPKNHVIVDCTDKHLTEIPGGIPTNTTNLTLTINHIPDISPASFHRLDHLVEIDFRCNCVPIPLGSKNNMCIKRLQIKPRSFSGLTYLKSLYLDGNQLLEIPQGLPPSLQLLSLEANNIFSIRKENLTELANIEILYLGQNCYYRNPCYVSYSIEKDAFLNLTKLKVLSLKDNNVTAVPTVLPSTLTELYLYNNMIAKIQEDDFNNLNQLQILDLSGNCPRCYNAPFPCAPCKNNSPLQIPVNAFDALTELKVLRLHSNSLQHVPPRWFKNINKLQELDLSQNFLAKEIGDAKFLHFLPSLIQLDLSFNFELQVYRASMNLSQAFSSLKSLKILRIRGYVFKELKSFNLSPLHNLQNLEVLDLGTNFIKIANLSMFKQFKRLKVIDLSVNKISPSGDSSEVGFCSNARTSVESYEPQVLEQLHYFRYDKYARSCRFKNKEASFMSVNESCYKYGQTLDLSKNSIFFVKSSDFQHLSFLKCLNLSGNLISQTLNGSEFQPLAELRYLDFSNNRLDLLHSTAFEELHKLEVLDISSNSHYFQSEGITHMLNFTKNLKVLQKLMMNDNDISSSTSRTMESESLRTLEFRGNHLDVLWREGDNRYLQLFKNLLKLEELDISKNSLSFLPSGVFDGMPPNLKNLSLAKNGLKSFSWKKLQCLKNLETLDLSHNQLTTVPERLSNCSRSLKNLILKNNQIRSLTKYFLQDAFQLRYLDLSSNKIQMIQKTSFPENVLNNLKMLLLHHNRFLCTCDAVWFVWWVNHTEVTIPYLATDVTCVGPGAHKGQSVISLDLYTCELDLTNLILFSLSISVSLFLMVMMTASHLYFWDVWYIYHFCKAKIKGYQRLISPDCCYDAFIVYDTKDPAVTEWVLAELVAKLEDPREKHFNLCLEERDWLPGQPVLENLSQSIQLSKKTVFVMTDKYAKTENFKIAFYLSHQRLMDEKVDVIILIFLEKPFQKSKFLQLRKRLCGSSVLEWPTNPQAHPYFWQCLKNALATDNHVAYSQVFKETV
protocolDetails: In vitro human TLR7 binding reporter assay (HEK-Blue, NF-kB/AP1-inducible SEAP)
Format: cell-based
conditions: activity range class, read-out: TLR7 Agonist EC50
Procedure: In Vitro Human TLR7 and TLR8 Binding Reporter Assays Logarithmically-growing human HEK-Blue cells co-expressing a TLR7 or TLR8 gene and a NF-kB/AP1-inducible SEAP (secreted embryonic alkaline phosphatase; Invivogen, San Diego, CA) reporter gene are added to individual wells of a 384-well plate (15,000 cells per 20 μL per well) and maintained for 24 h at 37° C., 5% CO2. […] All EC50 values (half-maximal effective concentration) are determined using proprietary data analysis software. […]
Measured EC50 by item
reportedMetric: EC50

| molecule | assayValue |
| --- | --- |
| Nc1nc2cc(-c3ccn[nH]3)ccc2c2nn(CCNC(=O)c3ccccn3)nc12 | > 100 µM |
| CC(=O)NC(C)Cn1cc2c(N)nc3cc(-c4ccn[nH]4)ccc3c2n1 (single isomer, unassigned) [Example 299] | > 100 µM |
| Nc1nc2cc(-c3cc[nH]n3)ccc2c2nn(CC(F)F)cc12 | > 100 µM |
| Nc1nc2cc(-c3cc[nH]n3)ccc2c2cn(CCNC(=O)c3ncccc3F)nc12 | > 100 µM |
| CCN(CCn1cc2c(N)nc3cc(-c4ccn[nH]4)ccc3c2n1)C(C)=O | > 100 µM |
| Nc1nc2cc(-c3ccn[nH]3)ccc2c2nn(CCNC3CCC3)cc12 | > 100 µM |
| COc1ccc(C(=O)NCCn2cc3c(N)nc4cc(-c5cc[nH]n5)ccc4c3n2)nc1 | > 100 µM |
| Nc1nc2cc(-n3cccn3)ccc2c2cn(CCN3CCCC3=O)nc12 | 20 to 100 µM |
| CC(Cn1cc2c(N)nc3cc(-c4ccn[nH]4)ccc3c2n1)NC(=O)C(C)(C)F (stereo not drawn) | > 100 µM |
| CS(=O)(=O)CCCn1ncc2c(N)nc3cc(-c4cc[nH]n4)ccc3c21 | > 100 µM |
| Nc1nc2cc(-c3cc[nH]n3)ccc2c2cn(CCc3c[nH]cn3)nc12 | > 100 µM |
| CCCCn1cc2c(n1)c(N)nc1cc(-c3ccn[nH]3)ccc12 | 1 to 20 µM |
| CCC(O)Cn1cc2c(N)nc3cc(-c4cc[nH]n4)ccc3c2n1 (stereo not drawn) | > 100 µM |
| CC(Cn1cc2c(N)nc3cc(-c4ccn[nH]4)ccc3c2n1)NS(C)(=O)=O (stereo not drawn) | > 100 µM |
| CN(C)C(=O)NCCn1cc2c(n1)c(N)nc1cc(-c3cc[nH]n3)ccc12 | > 100 µM |
| Cc1nc(Cn2cc3c(N)nc4cc(-c5cc[nH]n5)ccc4c3n2)no1 | > 100 µM |
| Nc1nc2cc(-c3cc[nH]n3)ccc2c2nn(CCCCO)cc12 | > 100 µM |
| Cn1ccnc1C(=O)NCCn1cc2c(n1)c(N)nc1cc(-c3cc[nH]n3)ccc12 | 20 to 100 µM |

----------
System: THP-1 cells
protocolDetails: Measurement of IL-1β production, hTRF protocol (second alternative procedure), THP-1 cells
Type: cell-based, human
conditions: Homo sapiens, THP-1, IL-1β production, human; read-out: NLRP3 hILIB EC50
pEC50: −log10 of the molar value.
molecules and their reported pEC50

| molecule | pEC50 |
| --- | --- |
| Nc1nc2cc(-n3cccn3)ccc2c2cn(CCNC(=O)c3ccc(F)cn3)nc12 [Example 184] | 7.00 |
| Nc1nc2cc(-c3ccn[nH]3)ccc2c2nn(CCNC(=O)c3ccc(F)cn3)nc12 [Example 160] | 6.15 |
| Cc1cccc(C(=O)NCCn2cc3c(n2)c(N)nc2cc(-c4cc[nH]n4)ccc23)n1 [Example 49] | 6.21 |
| Cc1nc(C)c(C(=O)NCCn2cc3c(n2)c(N)nc2cc(-c4cc[nH]n4)ccc23)o1 [Example 46] | 5.38 |
| CCNC(=O)Cn1cc2c(n1)c(N)nc1cc(-c3cc[nH]n3)ccc12 [Example 24] | 5.54 |
| CS(=O)(=O)CCCn1cc2c(N)nc3cc(-c4cc[nH]n4)ccc3c2n1 [Example 211] | 6.20 |
| Nc1nc2cc(-c3ccn[nH]3)ccc2c2nn(CC3CCCN3)cc12 (centres unmarked) [Example 278] | 6.12 |
| C[C@@H](CO)Cn1cc2c(N)nc3cc(-c4cc[nH]n4)ccc3c2n1 [Example 332] | 6.68 |
| Nc1nc2cc(-c3cc[nH]n3)ccc2c2cn(Cc3cscn3)nc12 [Example 168] | 6.70 |
| Nc1nc2cc(-c3cc[nH]n3)ccc2c2cn(CCNC(=O)C3CCCCO3)nc12 (centres unmarked) [Example 93] | 6.20 |
| Cc1nc(C(=O)NCCn2cc3c(N)nc4cc(-c5cc[nH]n5)ccc4c3n2)co1 [Example 198] | 6.96 |
| Nc1nc2cc(-c3cc[nH]n3)c(Cl)cc2c2cn(CCNC(=O)c3ccc(F)cn3)nc12 [Example 195] | 5.67 |
| Nc1nc2cc(-c3cc[nH]n3)ccc2c2cn(CC(=O)Nc3ccccn3)nc12 [Example 28] | 5.88 |
| CC1(O)CCCC1n1cc2c(N)nc3cc(-c4cc[nH]n4)ccc3c2n1 (centres unmarked) [Example 343] | 6.21 |
| Nc1nc2cc(-c3cc[nH]n3)ccc2c2c1cnn2CC(F)F [Example 225] | 6.70 |
| COC[C@@H](O)Cn1cc2c(N)nc3cc(-c4cc[nH]n4)ccc3c2n1 [Example 373] | 5.90 |
| Nc1nc2cc(-c3cc[nH]n3)ccc2c2cn(CCNC(=O)c3ccc(F)c(Cl)n3)nc12 [Example 89] | 6.92 |

----------
studySystem: TLR8 (Homo sapiens, UniProt Q9NR97)
Construct: human HEK-Blue cells co-expressing a TLR7 or TLR8 gene
Sequence (Q9NR97 27-1041): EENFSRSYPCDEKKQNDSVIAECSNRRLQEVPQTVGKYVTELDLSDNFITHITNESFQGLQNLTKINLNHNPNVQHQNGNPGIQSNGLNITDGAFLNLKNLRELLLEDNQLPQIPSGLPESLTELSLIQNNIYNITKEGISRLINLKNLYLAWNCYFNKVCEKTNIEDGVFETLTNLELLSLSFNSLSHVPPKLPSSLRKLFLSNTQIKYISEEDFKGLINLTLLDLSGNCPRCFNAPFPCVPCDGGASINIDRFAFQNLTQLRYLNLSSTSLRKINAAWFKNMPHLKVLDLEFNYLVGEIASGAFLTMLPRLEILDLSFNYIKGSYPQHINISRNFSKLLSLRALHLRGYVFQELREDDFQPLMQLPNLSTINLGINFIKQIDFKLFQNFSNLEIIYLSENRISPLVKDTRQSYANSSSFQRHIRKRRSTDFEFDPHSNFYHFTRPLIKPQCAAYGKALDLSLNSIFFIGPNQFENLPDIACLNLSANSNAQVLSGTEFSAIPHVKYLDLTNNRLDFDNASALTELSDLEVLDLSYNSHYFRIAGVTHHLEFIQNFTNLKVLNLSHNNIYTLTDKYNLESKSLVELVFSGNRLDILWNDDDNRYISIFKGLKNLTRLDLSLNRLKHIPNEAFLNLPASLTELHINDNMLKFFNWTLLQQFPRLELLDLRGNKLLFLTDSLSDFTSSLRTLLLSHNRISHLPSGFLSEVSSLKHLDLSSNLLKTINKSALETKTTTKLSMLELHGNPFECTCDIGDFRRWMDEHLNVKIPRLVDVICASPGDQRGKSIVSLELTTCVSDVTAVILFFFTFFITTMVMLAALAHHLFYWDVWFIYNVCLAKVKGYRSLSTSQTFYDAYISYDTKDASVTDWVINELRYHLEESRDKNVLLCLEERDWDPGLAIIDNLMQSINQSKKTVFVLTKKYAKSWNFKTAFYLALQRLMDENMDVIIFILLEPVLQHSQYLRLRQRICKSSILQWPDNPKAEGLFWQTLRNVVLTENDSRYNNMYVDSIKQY
protocolDetails: In vitro human TLR8 binding reporter assay (HEK-Blue, NF-kB/AP1-inducible SEAP)
Type: cell-based
conditions: activity range class, read-out: TLR8 Agonist EC50
pEC50: −log10 of the molar value.

| molecule | pEC50 |
| --- | --- |
| CCNC(=O)Cn1cc2c(n1)c(N)nc1cc(-n3cccn3)ccc12 | 4.00 to 4.70 |
| Nc1nc2cc(-c3cc[nH]n3)ccc2c2cn(CCNC(=O)Oc3ccccc3)nc12 | 4.00 to 4.70 |
| Cc1cc(Cn2cc3c(n2)c(N)nc2cc(-c4cc[nH]n4)ccc23)no1 | 4.70 to 6.00 |
| Nc1nc2cc(-c3cc[nH]n3)ccc2c2cn(CC(=O)Nc3ccccc3F)nc12 | < 4.00 |
| Nc1nc2cc(-c3cc[nH]n3)ccc2c2c1cnn2CC(O)CO (centres unmarked) | < 4.00 |
| Nc1nc2cc(-c3cc[nH]n3)ccc2c2nn(C3CCC(O)C3)cc12 (single isomer, unassigned) [Example 341] | < 4.00 |
| Nc1nc2cc(-c3cc[nH]n3)ccc2c2cn(CCNC(=O)c3ncccc3F)nc12 | < 4.00 |
| CC(C)(F)C(=O)NCCn1cc2c(N)nc3cc(-c4cc[nH]n4)ccc3c2n1 | < 4.00 |
